Could you please report measured NUDT7 for the items listed next?
- system: NUDT7 (Homo sapiens, UniProt P0C024)
- Construct: residues 14-235, E. coli, pNIC28-Bsa4, N-terminal His6 tag removed by TEV, construct 26672 Da
- Sequence (P0C024 14-235): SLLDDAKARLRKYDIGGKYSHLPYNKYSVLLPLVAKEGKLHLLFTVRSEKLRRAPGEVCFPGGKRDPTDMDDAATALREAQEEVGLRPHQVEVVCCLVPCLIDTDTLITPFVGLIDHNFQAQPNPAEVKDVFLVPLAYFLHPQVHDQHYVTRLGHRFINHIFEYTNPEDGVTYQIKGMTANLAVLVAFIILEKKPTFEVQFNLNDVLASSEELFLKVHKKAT
- Design: Intact protein LC/MS covalent labelling, fragments in pools of five, 200 uM each, 4 °C
- conditionParameters: 24 h, 4 °C, pool of five; 200 µM; covalent
In your answer, state the number alone without any accompanying words.

Qu. Reported NUDT7 for N#CSc1ccc(NC(=O)CCl)c(F)c1 : what is it?
Ans. 0

Qu. Reported NUDT7 for O=C(CCl)Nc1nc(-c2ccc(F)c(F)c2)cs1 : what is it?
Ans. 0.53

Qu. I am curious: what NUDT7 value has been reported for C=CC(=O)N1CCCCC1c1cnn(C)c1 (stereo not drawn) ?
Ans. 0.1

Qu. For NC(=O)c1c(NC(=O)CCl)sc2c1CCCC2 , what is its reported NUDT7?
Ans. 0.36

Qu. Give its NUDT7 value. Item: CC(NC(=O)CCl)c1cccc(Cl)c1 (stereo not drawn)
Ans. 0.42

Qu. # input compound: C=CC(=O)Nc1ccccc1C(=O)OC ; wanted: its NUDT7
Ans. 0.51
